# Test System: αvβ3 receptor (purified from human placenta) (Homo sapiens, UniProt P05106+P06756)
# Construct: αvβ3 receptor (purified from human placenta); from tissue; host or cells: human placenta
# Method: competition radioligand binding assay, 125I-echistatin to αvβ3 receptor
# Test Settings: Table 13; αvβ3, inhibition of specific 125I-echistatin binding
I'd be grateful if you could share measured pIC50 for these entries.
In simple prose, pIC50 is minus the logarithm base ten of a concentration in moles per litre.

*Q* Complete the entry with pIC50 for O=C(O)CC(NC(=O)c1ccc(CN(Cc2nc3ccccc3[nH]2)C(=O)CCC2CCCC2)cc1)c1ccccc1 (centres unmarked)
*A* 4.98

*Q* Complete the entry with pIC50 for CC(=O)N(Cc1ccc(C(=O)NC(CC(=O)O)c2ccccc2)cc1)Cc1nc2ccccc2[nH]1 (centres unmarked)
*A* 5.02

*Q* Complete the entry with pIC50 for O=C(O)CC(NC(=O)c1ccc(CN(Cc2nc3ccccc3[nH]2)C(=O)CCc2ccccc2)cc1)c1ccccc1 (centres unmarked)
*A* 5.18

*Q* Complete the entry with pIC50 for O=C(O)CC(NC(=O)c1ccc(CNCc2nc3ccccc3[nH]2)cc1)c1ccccc1 (centres unmarked)
*A* 5.03

*Q* Complete the entry with pIC50 for COCC(=O)N(Cc1ccc(C(=O)NC(CC(=O)O)c2ccccc2)cc1)Cc1nc2ccccc2[nH]1 (centres unmarked)
*A* 5.13

###

I'd be grateful if you could share measured IC50 for these entries.
# Test System: αvβ3 receptor (purified from human placenta) (Homo sapiens, UniProt P05106+P06756)
# Construct: αvβ3 receptor (purified from human placenta); from tissue; host or cells: human placenta
# Method: competition radioligand binding assay, 125I-echistatin to αvβ3 receptor
# Test Settings: Table 15; αvβ3, inhibition of specific 125I-echistatin binding
Give just the numeric value; nM need not be written.

*Q* Complete the entry with IC50 for COCC(=O)N(Cc1ccc(C(=O)NC[C@H](NC(=O)OCc2ccccc2)C(=O)O)cc1)C(C)c1nc2ccccc2[nH]1 (some centres unmarked)
*A* 49

*Q* Complete the entry with IC50 for CC(c1nc2ccccc2[nH]1)N(Cc1ccc(C(=O)NC[C@H](NC(=O)OCc2ccccc2)C(=O)O)cc1)C(=O)CCC1CCCC1 (some centres unmarked)
*A* 33

*Q* Complete the entry with IC50 for CC(NCc1ccc(C(=O)NC[C@H](NC(=O)OCc2ccccc2)C(=O)O)cc1)c1nc2ccccc2[nH]1 (some centres unmarked)
*A* 306

*Q* Complete the entry with IC50 for CC(c1nc2ccccc2[nH]1)N(Cc1ccc(C(=O)NC[C@H](NC(=O)OCc2ccccc2)C(=O)O)cc1)C(=O)CCc1ccccc1 (some centres unmarked)
*A* 21

*Q* Complete the entry with IC50 for CC(=O)N(Cc1ccc(C(=O)NC[C@H](NC(=O)OCc2ccccc2)C(=O)O)cc1)C(C)c1nc2ccccc2[nH]1 (some centres unmarked)
*A* 50

###

# Test System: αvβ3 receptor (purified from human placenta) (Homo sapiens, UniProt P05106+P06756)
# Construct: αvβ3 receptor (purified from human placenta); from tissue; host or cells: human placenta
# Method: competition radioligand binding assay, 125I-echistatin to αvβ3 receptor
# Test Settings: Table 16; αvβ3, inhibition of specific 125I-echistatin binding
# Method: The following assay procedure, which is a competition radioligand binding assay, was carried out to determine the activity of the foregoing compounds as αvβ3 antagonists. […] After a 3 hour incubation at room temperature, the wells were washed, and radioactivity, reflecting binding by ^125 I-echistatin to αvβ3 receptors, was determined with Top Count (Packard). […]
Decision: IC50 beneath 3 nM gives Met; IC50 meeting or exceeding 3 nM gives Not met.

*Q* Lab log: compare recorded IC50 with 3 nM; is it strictly lower for CCCCOC(=O)N[C@@H](CNC(=O)c1ccc(CN(Cc2nc3ccccc3[nH]2)C(=O)N[C@@H](C)C(=O)OCC)cc1)C(=O)O [Example 5-89] ?
*A* Not met

*Q* Lab log: compare recorded IC50 with 3 nM; is it strictly lower for CCCCOC(=O)N[C@@H](CNC(=O)c1ccc(CN(Cc2nc3ccccc3[nH]2)C(=O)Nc2ccccc2)cc1)C(=O)O [Example 5-83] ?
*A* Met

*Q* Lab log: compare recorded IC50 with 3 nM; is it strictly lower for O=C(NC[C@H](NS(=O)(=O)c1ccccc1)C(=O)O)c1ccc(CN(Cc2nc3ccccc3[nH]2)C(=O)NC2CCCCC2)cc1 [Example 5-81] ?
*A* Not met

*Q* Lab log: compare recorded IC50 with 3 nM; is it strictly lower for CCCCOC(=O)N[C@@H](CNC(=O)c1ccc(CN(Cc2nc3ccccc3[nH]2)C(=O)N[C@H](C(=O)OCC)C(C)C)cc1)C(=O)O [Example 5-90] ?
*A* Met

*Q* Lab log: compare recorded IC50 with 3 nM; is it strictly lower for CCCCOC(=O)N[C@@H](CNC(=O)c1ccc(CN(Cc2nc3ccccc3[nH]2)C(=O)NC2CCCCC2)cc1)C(=O)O [Example 5-82] ?
*A* Met

*Q* Lab log: compare recorded IC50 with 3 nM; is it strictly lower for CC(C)NC(=O)N(Cc1ccc(C(=O)NC[C@H](NC(=O)OCc2ccccc2)C(=O)O)cc1)Cc1nc2cc(Cl)ccc2[nH]1 [Example 5-95] ?
*A* Met

*Q* Lab log: compare recorded IC50 with 3 nM; is it strictly lower for CCCCOC(=O)N[C@@H](CNC(=O)c1ccc(CN(Cc2nc3ccccc3[nH]2)C(=O)Nc2ccc(F)cc2)cc1)C(=O)O [Example 5-88] ?
*A* Met

*Q* Lab log: compare recorded IC50 with 3 nM; is it strictly lower for CCCCOC(=O)N[C@@H](CNC(=O)c1ccc(CN(Cc2nc3ccccc3[nH]2)C(=O)NC(C)C)cc1)C(=O)O [Example 5-84] ?
*A* Not met

*Q* Lab log: compare recorded IC50 with 3 nM; is it strictly lower for CCCCOC(=O)N[C@@H](CNC(=O)c1ccc(CN(Cc2nc3ccccc3[nH]2)C(=O)N[C@@H](CCSC)C(=O)OCC)cc1)C(=O)O [Example 5-87] ?
*A* Met

*Q* Lab log: compare recorded IC50 with 3 nM; is it strictly lower for CCCCOC(=O)N[C@@H](CNC(=O)c1ccc(CN(Cc2nc3ccccc3[nH]2)C(=O)NC(C)(C)C)cc1)C(=O)O [Example 5-85] ?
*A* Met

*Q* Lab log: compare recorded IC50 with 3 nM; is it strictly lower for Cn1c(CN(Cc2ccc(C(=O)NC[C@H](NC(=O)OCc3ccccc3)C(=O)O)cc2)C(=O)NC2CCCCC2)nc2ccccc21 [Example 5-92] ?
*A* Not met

*Q* Lab log: compare recorded IC50 with 3 nM; is it strictly lower for CCCCOC(=O)N[C@@H](CNC(=O)c1ccc(CN(Cc2nc3ccccc3[nH]2)C(=O)Nc2ccc(C(=O)OCC)cc2)cc1)C(=O)O [Example 5-91] ?
*A* Met

*Q* Lab log: compare recorded IC50 with 3 nM; is it strictly lower for O=C(N[C@@H](CNC(=O)c1ccc(CN(Cc2nc3cc(Cl)ccc3[nH]2)C(=O)NC2CCCCC2)cc1)C(=O)O)OCc1ccccc1 [Example 5-94] ?
*A* Not met

*Q* Lab log: compare recorded IC50 with 3 nM; is it strictly lower for CCCCOC(=O)N[C@@H](CNC(=O)c1ccc(CN(Cc2nc3ccccc3[nH]2)C(=O)NCC(=O)OCC)cc1)C(=O)O [Example 5-86] ?
*A* Not met

*Q* Lab log: compare recorded IC50 with 3 nM; is it strictly lower for CCCCOC(=O)N[C@@H](CNC(=O)c1ccc(CN(Cc2nc3ccccc3[nH]2)C(=O)NCC(=O)O)cc1)C(=O)O [Example 5-97] ?
*A* Not met

*Q* Lab log: compare recorded IC50 with 3 nM; is it strictly lower for O=C(O)CNC(=O)N(Cc1ccc(C(=O)NC[C@H](NC(=O)OCc2ccccc2)C(=O)O)cc1)Cc1nc2ccccc2[nH]1 [Example 5-96] ?
*A* Not met

*Q* Lab log: compare recorded IC50 with 3 nM; is it strictly lower for CC(C)NC(=O)N(Cc1ccc(C(=O)NC[C@H](NC(=O)OCc2ccccc2)C(=O)O)cc1)Cc1nc2ccccc2n1C [Example 5-93] ?
*A* Not met

*Q* Lab log: compare recorded IC50 with 3 nM; is it strictly lower for COCC(=O)N(Cc1ccc(C(=O)NC[C@H](NS(=O)(=O)c2ccccc2)C(=O)O)cc1)Cc1nc2ccccc2[nH]1 [Example 5-80] ?
*A* Not met
